target: hAM2 receptor (CALCRL:RAMP3) (Homo sapiens, UniProt O60896+Q16602); construct: expressed in transfected cells; host or cells: GeneBLAzer CALCRL:RAMP3-CRE-bla Freestyle 293F; test: AM2 receptor antagonist activity measured by cAMP assay (HTRF); type: cell-based; details: selectivity ratio for hCGRP over hAM2, calculated from the IC50 values
Sequence (Q16602 23-461): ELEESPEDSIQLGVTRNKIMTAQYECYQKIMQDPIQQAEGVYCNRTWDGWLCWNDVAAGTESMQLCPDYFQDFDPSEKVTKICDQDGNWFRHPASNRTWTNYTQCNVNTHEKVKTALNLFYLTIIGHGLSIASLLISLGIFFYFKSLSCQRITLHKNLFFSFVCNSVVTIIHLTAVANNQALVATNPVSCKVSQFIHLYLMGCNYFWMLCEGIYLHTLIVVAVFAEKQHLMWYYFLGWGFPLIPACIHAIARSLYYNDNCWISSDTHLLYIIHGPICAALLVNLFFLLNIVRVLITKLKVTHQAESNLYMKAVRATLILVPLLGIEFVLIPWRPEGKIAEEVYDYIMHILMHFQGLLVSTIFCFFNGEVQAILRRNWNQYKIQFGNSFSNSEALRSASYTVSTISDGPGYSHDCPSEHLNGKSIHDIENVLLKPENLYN
Sequence (O60896 24-148): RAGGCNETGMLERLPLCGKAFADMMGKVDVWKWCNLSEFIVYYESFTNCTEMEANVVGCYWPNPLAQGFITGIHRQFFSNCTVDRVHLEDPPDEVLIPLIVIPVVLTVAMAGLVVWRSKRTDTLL
Numbered stars: 1 amine (or outer) side, 2 acyl side, 3 side chain; on linkers, the order of the positions; unused ones are H or OH. Bridge positions count the residues as written; N and C are the ends. Square brackets hold non-standard residues; d marks the D form. Peptide text beside a SMILES is read from it. * marks the point of attachment. Phe(3-CH2NH2) = O=C([C@H](Cc1cccc(CN[*:3])c1)N[*:1])[*:2]; Phe(3-CONH2) = NC(=O)c1cccc(C[C@H](N)C(=O)O)c1; Phe(2-CONH2) = NC(=O)c1ccccc1C[C@H](N)C(=O)O; X5 = O=C([C@H](Cc1ccc(CO)cc1)N[*:1])[*:2]; Picolinoyl(3,5-F2) = O=C(c1ncc(F)cc1F)*; Picolinoyl(5-F) = O=C(c1ccc(F)cn1)*; Orn(iPr) = CC(C)NCCC[C@H](N)C(=O)O; Benzoyl(4-F) = O=C(c1ccc(F)cc1)*; Oxazole2carbonyl = O=C(c1ncco1)*; 3Pal = N[C@@H](Cc1cccnc1)C(=O)O; Picolinoyl = O=C(c1ccccn1)*; ΔPro = O=C(O)[C@@H]1C=CCN1; Orn = NCCC[C@H](N)C(=O)O; Dap = NC[C@H](N)C(=O)O; X10 = O=C(c1nccs1)*
selectivity ratio CGRP/AM2 overview
The reply should be a number, written without any unit.

Recorded results for 6 compounds are shown here.
CC(C)NCCC[C@@H]1NC(=O)[C@@H](NC(=O)[C@H](Cc2ccccc2C(N)=O)NC(=O)[C@H](NC(=O)c2ccccn2)C(C)C)CSSC[C@@H](C(=O)N[C@@H](Cc2cccnc2)C(N)=O)NC(=O)[C@H](Cc2cccc(CN)c2)NC(=O)[C@@H]2C=CCN2C(=O)CNC(=O)[C@H](C(C)C)NC(=O)[C@H](CC(=O)O)NC1=O [Compound 54] (Picolinoyl-[dV][Phe(2-CONH2)]C[Orn(iPr)]DVG[ΔPro][Phe(3-CH2NH2)]C[3Pal]-NH2; disulfide 3-10)
898
CC(C)[C@@H]1NC(=O)[C@H](CC(=O)O)NC(=O)[C@H](CCCNC(=N)N)NC(=O)[C@@H](NC(=O)[C@H](Cc2ccc(O)cc2)NC(=O)[C@H](NC(=O)c2nccs2)C(C)C)CSSC[C@@H](C(=O)N[C@@H](Cc2cccnc2)C(N)=O)NC(=O)[C@H](Cc2ccccc2)NC(=O)[C@@H]2CCCN2C(=O)CNC1=O [Compound 33] (X10-[dV]YCRDVGPFC[3Pal]-NH2; disulfide 3-10)
117
CC(C)[C@@H]1NC(=O)[C@H](CC(=O)O)NC(=O)[C@H](CCCN)NC(=O)[C@@H](NC(=O)[C@H](Cc2ccc(O)cc2)NC(=O)[C@H](NC(=O)c2ccc(F)cn2)C(C)C)CSSC[C@@H](C(=O)N[C@@H](Cc2cccnc2)C(N)=O)NC(=O)[C@H](Cc2ccc(CO)cc2)NC(=O)[C@@H]2CCCN2C(=O)CNC1=O [Compound 56] ({Picolinoyl(5-F)}-[dV]YC[Orn]DVGP[X5]C[3Pal]-NH2; disulfide 3-10)
328
CC(C)[C@@H]1NC(=O)[C@H](CC(=O)O)NC(=O)[C@H](CCCNC(=N)N)NC(=O)[C@@H](NC(=O)[C@H](Cc2ccc(O)cc2)NC(=O)[C@H](NC(=O)c2ncc(F)cc2F)C(C)C)CSSC[C@@H](C(=O)N[C@@H](Cc2cccnc2)C(N)=O)NC(=O)[C@H](Cc2ccccc2)NC(=O)[C@@H]2CCCN2C(=O)CNC1=O [Compound 35] ({Picolinoyl(3,5-F2)}-[dV]YCRDVGPFC[3Pal]-NH2; disulfide 3-10)
580
CC(C)[C@@H]1NC(=O)[C@H](CC(=O)O)NC(=O)[C@H](CN)NC(=O)[C@@H](NC(=O)[C@H](Cc2ccc(O)cc2)NC(=O)[C@H](NC(=O)c2ccc(F)cc2)C(C)C)CSSC[C@@H](C(=O)N[C@@H](Cc2cccnc2)C(N)=O)NC(=O)[C@H](Cc2cccc(C(N)=O)c2)NC(=O)[C@@H]2CCCN2C(=O)CNC1=O [Compound 6] ({Benzoyl(4-F)}-[dV]YC[Dap]DVGP[Phe(3-CONH2)]C[3Pal]-NH2; disulfide 3-10)
612
CC(C)NCCC[C@@H]1NC(=O)[C@@H](NC(=O)[C@H](Cc2ccc(O)cc2)NC(=O)[C@H](NC(=O)c2ccc(F)cn2)C(C)C)CSSC[C@@H](C(=O)N[C@@H](Cc2cccnc2)C(N)=O)NC(=O)[C@H](Cc2cccc(C(N)=O)c2)NC(=O)[C@@H]2C=CCN2C(=O)CNC(=O)[C@H](C(C)C)NC(=O)[C@H](CC(=O)O)NC1=O [Compound 68] ({Picolinoyl(5-F)}-[dV]YC[Orn(iPr)]DVG[ΔPro][Phe(3-CONH2)]C[3Pal]-NH2; disulfide 3-10)
300

Query: Any idea what selectivity ratio CGRP/AM2 was measured for CC(C)NCCC[C@@H]1NC(=O)[C@@H](NC(=O)[C@H](Cc2ccccc2C(N)=O)NC(=O)[C@H](NC(=O)c2ncco2)C(C)C)CSSC[C@@H](C(=O)N[C@@H](Cc2cccnc2)C(N)=O)NC(=O)[C@H](Cc2cccnc2)NC(=O)[C@@H]2C=CCN2C(=O)CNC(=O)[C@H](C(C)C)NC(=O)[C@H](CC(=O)O)NC1=O [Compound 58] (Oxazole2carbonyl-[dV][Phe(2-CONH2)]C[Orn(iPr)]DVG[ΔPro][3Pal]C[3Pal]-NH2; disulfide 3-10) ?
Result: 2588

Query: Can you handle CC(C)[C@@H]1NC(=O)[C@H](CC(=O)O)NC(=O)[C@H](CCCNC(=N)N)NC(=O)[C@@H](NC(=O)[C@H](Cc2cccc(CN)c2)NC(=O)[C@H](NC(=O)c2ncco2)C(C)C)CSSC[C@@H](C(=O)N[C@@H](Cc2cccnc2)C(N)=O)NC(=O)[C@H](Cc2cccc(C(N)=O)c2)NC(=O)[C@@H]2C=CCN2C(=O)CNC1=O [Compound 23] (Oxazole2carbonyl-[dV][Phe(3-CH2NH2)]CRDVG[ΔPro][Phe(3-CONH2)]C[3Pal]-NH2; disulfide 3-10) next?
Result: 400

Query: Can you handle CC(C)[C@@H]1NC(=O)[C@H](CC(=O)O)NC(=O)[C@H](CCCN)NC(=O)[C@@H](NC(=O)[C@H](Cc2ccc(O)cc2)NC(=O)[C@H](NC(=O)c2ccc(F)cn2)C(C)C)CSSC[C@@H](C(=O)N[C@@H](Cc2cccnc2)C(N)=O)NC(=O)[C@H](Cc2ccccc2)NC(=O)[C@@H]2CCCN2C(=O)CNC1=O [Compound 12] ({Picolinoyl(5-F)}-[dV]YC[Orn]DVGPFC[3Pal]-NH2; disulfide 3-10) next?
Result: 172
